Provenance of the data: PubChem BioAssay AID1845215

What viability, T/C was measured for each of the following?
- Tested on: SW 1271 complex tumor spheroid viability
- assayNotes: Anticancer human tumor SW 1271 cell line growth inhibition;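 note: spheroids exposed to agents for seven days before readout; percent of DMSO vehicle control luminescence so 100% = vehicle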
- experimentalConditions: second compound 10 µM; first compound 0.0316 µM; stronger effect = lower value
Lab book: enter the figure in %, no units written.

# input Request the reported viability, T/C associated with COc1cc(C)[nH]c(=O)c1CN1CCc2c(Cl)cc(C(OC)C3COC3)c(Cl)c2C1=O (stereo unspecified) + Cn1nnc2c(C(N)=O)ncn2c1=O
# output 98.2

# input CC1COCCN1c1cc(-c2ccnn2C)c2ccnc(-c3ccn[nH]3)c2n1 (stereo unspecified) + Cn1nnc2c(C(N)=O)ncn2c1=O , same question.
# output 73.8

# input What do we get for COc1ccc([C@@H](O)c2cc(-c3ncnc4cc(N5CCOCC5)ccc34)c(F)cc2Cl)nn1 + Cn1nnc2c(C(N)=O)ncn2c1=O ?
# output 97.1

# input What about CC(C)n1c(=O)n(C)c2cnc3cc(F)c(-c4ccc(OCCCN5CCCCC5)nc4)cc3c21 + Cn1nnc2c(C(N)=O)ncn2c1=O ?
# output 87.1

# input Query [2H]c1nc(C)nc([2H])c1-c1cc(NC[C@@H](C)c2cccc3c(C(=O)NC)ccnc23)ncn1 + Cn1nnc2c(C(N)=O)ncn2c1=O next
# output 101

# input Continue with Cc1cc(C)c(CNC(=O)c2cc(-c3ccc(CN4CCOCC4)cc3)cc3c2cnn3C2CCCC2)c(=O)[nH]1 + Cn1nnc2c(C(N)=O)ncn2c1=O
# output 97.7
